pIC50 values recorded for PDE4D7 (Homo sapiens, UniProt Q08499)
Remember the convention: pIC50 equals -log10 of concentration in molar.

Some solved cases for reference:
>>> print(df.to_string())
                                   compound                        subject_of_test  endpoint_value
0  COc1cccc2c1ncc1c(=O)n([C@H]3CC[C@H](C(=O)O)CC3)c(=O)n(-c3cccc(Cl)c3)c12 [COMPOUND I * HCI (Batch 2)]  PDE4D7 (Homo sapiens, UniProt Q08499)            8.48
1  COc1cccc2c1ncc1c(=O)n([C@H]3CC[C@H](C(=O)O)CC3)c(=O)n(-c3cccc(Cl)c3)c12 [COMPOUND I * HCI (Batch 1)]  PDE4D7 (Homo sapiens, UniProt Q08499)            8.82

// assay PDE4D7 (Homo sapiens, UniProt Q08499), entry COc1cccc2c1ncc1c(=O)n([C@H]3CC[C@H](C(=O)O)CC3)c(=O)n(-c3cccc(Cl)c3)c12 [COMPOUND I * HCI (Batch 3)] , pIC50 value = 8.96
